As shown below, each of these molecules has a reported activation value.
system-name: Thyrotropin-releasing hormone receptor (Homo sapiens)
protocol-summary: qHTS for Small Molecule Agonists and Allosteric Enhancers of Human TRH Receptor: Validation Screen for Agonists (AID 493127);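 note: intracellular calcium rise by fluo-8 fluorescence before TRH EC20 addition; 0% is about no effect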
test-context: TRH receptor agonist cell assay; at 2 µM; active compounds read high

# molecule, activation, %
rows = [
    ("CC1CN(S(=O)(=O)c2cccc3cnccc23)CCN1 (stereo not given)", 1.06),
    ("CN(C)c1nc2c(Br)c(Br)c(Br)c(Br)c2[nH]1", 5.88),
    ("O=S(=O)(c1cccc2c(I)cccc12)N1CCCNCC1", 2.06),
    ("Fc1cccc(/C=N/N=C/c2cccc(F)c2)c1", -7.56),
    ("N#C/C(=C\\c1ccc(O)c(O)c1)C(=O)c1ccc(O)c(O)c1", -0.562),
    ("C[C@@H](CN1CCC(Cc2ccccc2)CC1)[C@@H](O)c1ccc(O)cc1", 2.75),
    ("NC[C@@H]1O[C@H](C23CC4CC(CC(C4)C2)C3)Cc2c1ccc(O)c2O", 8.12),
    ("O=C(/C=C/c1ccc(O)c(O)c1)OCCc1ccccc1", 0.812),
    ("CCCCN1CCC(n2c(=O)[nH]c3ccccc32)CC1", 1),
    ("CCCCCCCCCCCCCCCC(=O)NCC(COP(=O)([O-])OCC[N+](C)(C)C)OCC (stereo not given)", 0.812),
    ("Cn1cc(C2=C(c3ccc(Cl)cc3Cl)C(=O)NC2=O)c2ccccc21", 29.6),
    ("S=C(S)OC1CC2CC1C1CCCC21 (stereo not given)", 0.125),
    ("COc1cccc(OC)c1OCCNCC1COc2ccccc2O1 (stereo not given)", -3.69),
    ("Cc1ccc(C(=O)O[C@H](C(=O)O)[C@@H](OC(=O)c2ccc(C)cc2)C(=O)O)cc1 (tested in a mixture with another compound)", 1.25),
    ("C=C/C(C)=C/[C@@]1(C)SC(=O)C(C)=C1O", 0.875),
    ("O=C1NC(O)=NC1(c1ccccc1)c1ccccc1", 0.125),
    ("C#CCN1C(C)=C(C(=O)OC)C(c2cccc([N+](=O)[O-])c2)C(C(=O)OCC)=C1C (stereo not given)", -10.2),
    ("N=C(N)SCCc1ccc(CCSC(=N)N)cc1", 1.12),
    ("Brc1c(Br)c(Br)c2n[nH]nc2c1Br", 0.938),
    ("O=C1O/C(=C/Br)CCC1c1cccc2ccccc12 (stereo not given)", -3.56),
]
